Attribution: ChEMBL document CHEMBL3734729

- Measurement Description: Drug degradation in MES buffer at pH 6.5 after 1 hr by NMR analysis
- Format: physicochemical
- Condition Details: read-out: Drug degradation
Readout: degraded at 1 h (%)
Numbers only, in %.

The compound CCOP1(=O)OC(C)=C(C(=O)OC)CCC1(F)F (stereo unspecified) showed degraded at 1 h equal to 7.2

* * *

- Measurement Description: Drug degradation in MES buffer at pH 6 after 1 hr by NMR analysis
- Type: physicochemical
- Condition Details: read-out: Drug degradation
Readout: degraded at 1 h
Don't forget the unit after the number, please.

The compound CCOP1(=O)OC(C)=C(C(=O)OC)CCC1(F)F (stereo unspecified) showed degraded at 1 h equal to 4.1%

* * *

- Measurement Description: Drug degradation in sodium phosphate buffer at pH 7 after 1 hr by NMR analysis
- Type: physicochemical
- Condition Details: read-out: Drug degradation
Readout: degraded at 1 h (%)
Answers are plain numbers, in %.

The compound CCOP1(=O)OC(C)=C(C(=O)OC)CCC1(F)F (stereo unspecified) showed degraded at 1 h equal to 34

* * *

- Measurement Description: Drug degradation in sodium phosphate buffer at pH 7 after 24 hrs by NMR analysis
- Assay type: physicochemical
- Condition Details: read-out: Drug degradation
Readout: degraded at 24 h (%)
Answers are plain numbers, in %.

The compound CCOP1(=O)OC(C)=C(C(=O)OC)CCC1(F)F (stereo unspecified) showed degraded at 24 h equal to 100

* * *

- Target: Acetylcholinesterase (Homo sapiens, UniProt P22303)
- Sequence (P22303 whole entry): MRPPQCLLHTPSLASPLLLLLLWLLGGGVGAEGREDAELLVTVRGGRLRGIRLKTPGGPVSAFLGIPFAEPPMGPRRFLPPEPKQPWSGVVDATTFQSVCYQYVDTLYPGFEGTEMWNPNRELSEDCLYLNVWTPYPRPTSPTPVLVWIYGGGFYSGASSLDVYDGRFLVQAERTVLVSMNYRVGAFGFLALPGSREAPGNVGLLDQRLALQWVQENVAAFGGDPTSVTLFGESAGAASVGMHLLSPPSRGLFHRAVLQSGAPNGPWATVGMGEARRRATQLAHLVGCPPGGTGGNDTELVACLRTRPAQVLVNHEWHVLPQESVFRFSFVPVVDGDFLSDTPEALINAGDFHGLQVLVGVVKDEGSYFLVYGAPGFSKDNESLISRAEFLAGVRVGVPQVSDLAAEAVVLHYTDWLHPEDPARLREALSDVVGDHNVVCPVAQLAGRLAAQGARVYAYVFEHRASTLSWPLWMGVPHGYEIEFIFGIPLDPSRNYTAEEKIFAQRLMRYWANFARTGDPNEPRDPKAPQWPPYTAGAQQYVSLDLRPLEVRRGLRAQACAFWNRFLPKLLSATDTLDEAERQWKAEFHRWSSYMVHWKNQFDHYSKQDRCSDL
- Measurement Description: Inhibition of human AChE at pH 8
Assignment: determine reported pIC50 for the given compounds.
Numbers only, as −log10 of the molar value.

> print(dat)
                                   compound                                    target  result.number
1  COC(=O)C1=C(C)OP(=O)(OC)OCC1 (configuration not stated)  Acetylcholinesterase (Homo sapiens, UniProt P22303)           5.99
2  COP1(=O)OCCC(C(=O)OC(C)(C)C)=C(C)O1 (configuration not stated)  Acetylcholinesterase (Homo sapiens, UniProt P22303)           5.23
3  COP1(=O)OC[C@@H]2COC(=O)C2=C(C)O1 (single isomer, unassigned)  Acetylcholinesterase (Homo sapiens, UniProt P22303)           7.46
4  COC(=O)C1=C(C)OP(=O)(OC)CCC1 (configuration not stated)  Acetylcholinesterase (Homo sapiens, UniProt P22303)           4.92
5  COP1(=O)OC[C@H]2COC(=O)C2=C(C)O1 (single isomer, unassigned) [CYCLOPHOSTIN]  Acetylcholinesterase (Homo sapiens, UniProt P22303)           7.40

The compound CCOP1(=O)CCCC(C(=O)OC)=C(C)O1 (configuration not stated) showed pIC50 equal to 5.12

* * *

- Measurement Description: Drug degradation in sodium phosphate buffer at pH 8 after 30 mins by NMR analysis
- Assay type: physicochemical
- Condition Details: read-out: Drug degradation
Readout: degraded at 0.5 h (%)
Answers are plain numbers, in %.

Give measured degraded at 0.5 h for every item shown.
1. COC(=O)C1=C(C)OP(=O)(OC)OCC1 (stereo not drawn)
2. CCOP1(=O)OC(C)=C(C(=O)OC)CCC1(F)F (stereo not drawn)
3. COC(=O)C1=C(C)OP(=O)(OC)CCC1 (stereo not drawn)

Marked response:
0
5
2

* * *

Assignment: determine reported degraded at 24 h for the given compounds.
- Measurement Description: Drug degradation in sodium phosphate buffer at pH 8 after 24 hrs by NMR analysis
- Format: physicochemical
- Condition Details: read-out: Drug degradation
Give bare numbers, in %.

# count of solved cases: 2
> print(dat)
                                   compound  result.number
1  COC(=O)C1=C(C)OP(=O)(OC)OCC1 (stereo not drawn)             57
2  CCOP1(=O)OC(C)=C(C(=O)OC)CCC1(F)F (stereo not drawn)            100

// switching to the query compound
The compound COC(=O)C1=C(C)OP(=O)(OC)CCC1 (stereo not drawn) showed degraded at 24 h equal to 9.6

* * *

- Measurement Description: Drug degradation in MES buffer at pH 6 after 30 mins by NMR analysis
- Format: physicochemical
- Condition Details: read-out: Drug degradation
Readout: degraded at 0.5 h (%)
Answers are plain numbers, in %.

The molecule CCOP1(=O)OC(C)=C(C(=O)OC)CCC1(F)F (stereo unspecified) showed degraded at 0.5 h equal to 0.5

* * *

- Target: Acetylcholinesterase (Homo sapiens)
- Measurement Description: Irreversible inhibition of AChE (unknown origin)
Readout: Ki (nM)
Numbers only, in nM.

The compound COP1(=O)OC[C@H]2COC(=O)C2=C(C)O1 (single isomer, unassigned) showed Ki equal to 140

* * *

- Measurement Description: Drug degradation in MES buffer at pH 6 after 24 hrs by NMR analysis
- Assay type: physicochemical
- Condition Details: read-out: Drug degradation
Readout: degraded at 24 h
Don't forget the unit after the number, please.

The compound CCOP1(=O)OC(C)=C(C(=O)OC)CCC1(F)F (stereo unspecified) showed degraded at 24 h equal to 65%

* * *

Assignment: determine reported pIC50 for the given compounds.
- Target: Acetylcholinesterase (Homo sapiens, UniProt P22303)
- Measurement Description: Inhibition of human AChE at pH 6
Answers are plain numbers, as −log10 of the molar value.

Give measured pIC50 for every item shown.
1. COC(=O)C1=C(C)OP(=O)(OC)OCC1 (stereo not given)
2. COC(=O)C1=C(C)OP(=O)(OC)CCC1 (stereo not given)
3. CCOP1(=O)CCCC(C(=O)OC)=C(C)O1 (stereo not given)
4. COP1(=O)OCCC(C(=O)OC(C)(C)C)=C(C)O1 (stereo not given)

Marked response:
1. 5.98
2. 4.59
3. 5.05
4. 5.21
